# System: morningglory (Ipomoea spp.)
# Assay Details: Test A postemergence, morningglory
# Format: in vivo
# Experimental Context: 500 g ai/ha, 0 to 100 scale
Experimental Readout: Plant response rating, Morningglory
No unit in the answer, only the number.

Smi	Test System	Experimental Readout	Value
Cc1cnn(-c2ncccc2Oc2ncc(Cl)cn2)c1	morningglory (Ipomoea spp.)	Plant response rating, Morningglory	30
Clc1cnc(Oc2cccnc2-n2cc(Br)cn2)nc1	morningglory (Ipomoea spp.)	Plant response rating, Morningglory	80
Clc1cnc(Oc2cccnc2-n2cc(-c3ccccc3)cn2)nc1	morningglory (Ipomoea spp.)	Plant response rating, Morningglory	10
Clc1cnc(Oc2cccnc2-n2cc(Cl)cn2)nc1	morningglory (Ipomoea spp.)	Plant response rating, Morningglory	80

Kindly consider the entry below.
For morningglory (Ipomoea spp.), provide Plant response rating, Morningglory of `Cc1ccc(Oc2ncc(Cl)cn2)c(-n2cc(Br)cn2)n1` please.
10

###

# System: sedge, umbrella (small-flower umbrella sedge, Cyperus difformis)
# Assay Details: Test B flooded paddy test, sedge, umbrella
# Type: in vivo
# Experimental Context: Flood, 250 g ai/ha; scale of 0 to 100
# Description: Plant species in the flooded paddy test selected from rice (Oryza sativa), sedge, umbrella (small-flower umbrella sedge, Cyperus difformis), ducksalad (Heteranthera limosa), and barnyardgrass (Echinochloa crus-galli) were grown to the 2-leaf stage for testing. […] Treated plants and controls were maintained in a greenhouse for 13 to 15 days, after which time all species were compared to controls and visually evaluated. […]
Experimental Readout: Plant response rating, Sedge, Umbrella
No unit in the answer, only the number.

These recorded examples may help you get a feel for the data.
Smi	Plant response rating, Sedge, Umbrella
Clc1ccc(-c2cccnc2Oc2ncc(Cl)cn2)nc1	30
Cc1cnn(-c2ncccc2Oc2ncc(Cl)cn2)c1	60
Clc1cnc(Oc2cccnc2-n2cc(Cl)cn2)nc1	75
[O-][n+]1cccc(Oc2ncc(F)cn2)c1-n1cc(Cl)cn1	0

Kindly consider the entry below.
Reported Plant response rating, Sedge, Umbrella, compound `Clc1cnc(Oc2cccnc2-n2cc(-c3ccccc3)cn2)nc1` : ____
70

###

# Test system: pigweed (Amaranthus retroflexus)
# Assay Details: Test A postemergence, pigweed
# Type: in vivo
# Experimental Context: 125 g ai/ha, 0 to 100 scale
Output 1.0 for Plant response rating, Pigweed not less than 70; output 0.0 otherwise.

Smi	Class
[O-][n+]1cccc(Oc2ncc(F)cn2)c1-n1cc(Cl)cn1	0.0
Clc1cnc(Oc2cccnc2-n2cc(Cl)cn2)nc1	1.0
FC(F)c1cc(-c2ncccc2Oc2ncc(Cl)cn2)no1	1.0

Form field: Plant response rating, Pigweed at least 70? Entry: `Clc1cnc(Oc2cccnc2-n2cc(-c3ccccc3)cn2)nc1`
0.0

Repeat with `FC(F)(F)c1cc(-c2ncccc2Oc2ncc(Cl)cn2)ccn1`
1.0

Repeat with `Cc1ccc(Oc2ncc(Cl)cn2)c(-n2cc(Br)cn2)n1`
0.0

Repeat with `FC(F)c1cc(-c2ncccc2Oc2ncc(Cl)cn2)on1`
1.0

###

# Tested on: pigweed (Amaranthus retroflexus)
# Assay Details: Test A postemergence, pigweed
# Assay type: in vivo
# Experimental Context: 31 g ai/ha, 0 to 100 scale
Please use condition met for Plant response rating, Pigweed under 50 and condition not met for everything else, ties included.

Molecule	Class
[O-][n+]1cccc(Oc2ncc(F)cn2)c1-n1cc(Cl)cn1 [Compound 9]	condition met
Cc1cnc(-n2ccc(C(F)(F)F)n2)c(Oc2ncc(Cl)cn2)c1 [Compound 13]	condition met

I wonder whether FC(F)c1cc(-c2ncccc2Oc2ncc(Cl)cn2)on1 [Compound 5] has Plant response rating, Pigweed below 50. Can you tell?
condition not met

Repeat with Clc1ccc(-c2cccnc2Oc2ncc(Cl)cn2)nc1 [Compound 12]
condition met

Repeat with Fc1cnc(Oc2cccnc2-c2cc(C(F)F)no2)nc1 [Compound 7]
condition met

Repeat with FC(F)c1cc(-c2ncccc2Oc2ncc(Cl)cn2)no1 [Compound 6]
condition not met

###

# Tested on: velvetleaf (Abutilon theophrasti)
# Assay Details: Test A preemergence, velvetleaf
# Type: in vivo
# Experimental Context: 125 g ai/ha, 0 to 100 scale
Below, each of the compounds is paired with its reported Plant response rating, Velvetleaf value.
No unit in the answer, only the number.

These recorded examples may help you get a feel for the data.
Compound	Test System	Plant response rating, Velvetleaf
Clc1cnc(Oc2cccnc2-n2cc(-c3ccccc3)cn2)nc1 [Compound 4]	velvetleaf (Abutilon theophrasti)	0
Clc1cnc(Oc2cccnc2-n2cc(Br)cn2)nc1 [Compound 1]	velvetleaf (Abutilon theophrasti)	10
Cc1ccc(Oc2ncc(Cl)cn2)c(-n2cc(Br)cn2)n1 [Compound 10]	velvetleaf (Abutilon theophrasti)	0
Clc1cnc(Oc2cccnc2-n2cc(Cl)cn2)nc1 [Compound 2]	velvetleaf (Abutilon theophrasti)	10

Kindly consider the entry below.
Reported Plant response rating, Velvetleaf, compound Cc1cnn(-c2ncccc2Oc2ncc(Cl)cn2)c1 [Compound 3] : ____
0

###

# Test system: foxtail, giant (giant foxtail, Setaria faberii)
# Assay Details: Test A preemergence, foxtail, giant
# Assay type: in vivo
# Experimental Context: 125 g ai/ha, 0 to 100 scale
Experimental Readout: Plant response rating, Foxtail, Giant
No unit in the answer, only the number.

These recorded examples may help you get a feel for the data.
Smi	Plant response rating, Foxtail, Giant
Cc1cnc(-n2ccc(C(F)(F)F)n2)c(Oc2ncc(Cl)cn2)c1	0
FC(F)c1cc(-c2ncccc2Oc2ncc(Cl)cn2)no1	90
Cc1ccc(Oc2ncc(Cl)cn2)c(-n2cc(Br)cn2)n1	0
Clc1cnc(Oc2cccnc2-n2cc(-c3ccccc3)cn2)nc1	0
Fc1cnc(Oc2cccnc2-c2cc(C(F)F)no2)nc1	20
Clc1cnc(Oc2cccnc2-n2cc(Cl)cn2)nc1	10
Clc1ccc(-c2cccnc2Oc2ncc(Cl)cn2)nc1	0
[O-][n+]1cccc(Oc2ncc(Cl)cn2)c1-c1cc(C(F)F)on1	10

For foxtail, giant (giant foxtail, Setaria faberii), provide Plant response rating, Foxtail, Giant of `Clc1cnc(Oc2cccnc2-n2cc(Br)cn2)nc1` please.
20

Repeat with `[O-][n+]1cccc(Oc2ncc(F)cn2)c1-n1cc(Cl)cn1`
0

###

Below, each of the compounds is paired with its reported Plant response rating, Foxtail, Giant value.
# Tested on: foxtail, giant (giant foxtail, Setaria faberii)
# Assay Details: Test A preemergence, foxtail, giant
# Format: in vivo
# Experimental Context: 500 g ai/ha, 0 to 100 scale
No unit in the answer, only the number.

These recorded examples may help you get a feel for the data.
Smi	Value
Cc1cnn(-c2ncccc2Oc2ncc(Cl)cn2)c1	0
Clc1cnc(Oc2cccnc2-n2cc(-c3ccccc3)cn2)nc1	0
Cc1ccc(Oc2ncc(Cl)cn2)c(-n2cc(Br)cn2)n1	20
Clc1cnc(Oc2cccnc2-n2cc(Br)cn2)nc1	80
Clc1cnc(Oc2cccnc2-n2cc(Cl)cn2)nc1	80

For foxtail, giant (giant foxtail, Setaria faberii), provide Plant response rating, Foxtail, Giant of `FC(F)(F)c1cc(-c2ncccc2Oc2ncc(Cl)cn2)ccn1` please.
100

###

# Tested on: foxtail, giant (giant foxtail, Setaria faberii)
# Assay Details: Test A postemergence, foxtail, giant
# Format: in vivo
# Experimental Context: 500 g ai/ha, 0 to 100 scale
Below, each of the compounds is paired with its reported Plant response rating, Foxtail, Giant value.
No unit in the answer, only the number.

Compound	Plant response rating, Foxtail, Giant
Cc1cnn(-c2ncccc2Oc2ncc(Cl)cn2)c1 [Compound 3]	10
FC(F)(F)c1cc(-c2ncccc2Oc2ncc(Cl)cn2)ccn1 [Compound 14]	90
Clc1cnc(Oc2cccnc2-n2cc(Cl)cn2)nc1 [Compound 2]	30

Reported Plant response rating, Foxtail, Giant, compound Clc1cnc(Oc2cccnc2-n2cc(-c3ccccc3)cn2)nc1 [Compound 4] : ____
0

Repeat with Clc1cnc(Oc2cccnc2-n2cc(Br)cn2)nc1 [Compound 1]
30

Repeat with Cc1ccc(Oc2ncc(Cl)cn2)c(-n2cc(Br)cn2)n1 [Compound 10]
0

###

Below, each of the compounds is paired with its reported Plant response rating, Morningglory value.
# Tested on: morningglory (Ipomoea spp.)
# Assay Details: Test A preemergence, morningglory
# Assay type: in vivo
# Experimental Context: 500 g ai/ha, 0 to 100 scale
No unit in the answer, only the number.

These recorded examples may help you get a feel for the data.
Smi	Plant response rating, Morningglory
Cc1cnn(-c2ncccc2Oc2ncc(Cl)cn2)c1	0
Clc1cnc(Oc2cccnc2-n2cc(-c3ccccc3)cn2)nc1	0
Cc1ccc(Oc2ncc(Cl)cn2)c(-n2cc(Br)cn2)n1	10
Clc1cnc(Oc2cccnc2-n2cc(Br)cn2)nc1	0

Kindly consider the entry below.
For morningglory (Ipomoea spp.), provide Plant response rating, Morningglory of `Clc1cnc(Oc2cccnc2-n2cc(Cl)cn2)nc1` please.
0

###

# Tested on: crabgrass, large (large crabgrass, Digitaria sanguinalis)
# Assay Details: Test A postemergence, crabgrass, large
# Format: in vivo
# Experimental Context: 500 g ai/ha, 0 to 100 scale
Experimental Readout: Plant response rating, Crabgrass, Large
No unit in the answer, only the number.

These recorded examples may help you get a feel for the data.
Smi	Plant response rating, Crabgrass, Large
Cc1cnn(-c2ncccc2Oc2ncc(Cl)cn2)c1	10
Clc1cnc(Oc2cccnc2-n2cc(Br)cn2)nc1	50
Clc1cnc(Oc2cccnc2-n2cc(Cl)cn2)nc1	40
Clc1cnc(Oc2cccnc2-n2cc(-c3ccccc3)cn2)nc1	0

Reported Plant response rating, Crabgrass, Large, compound `Cc1ccc(Oc2ncc(Cl)cn2)c(-n2cc(Br)cn2)n1` : ____
10
